Target: beta amyloid/tau aggregates in post-mortem AD patient brain homogenates
Assay: ADbh RBA saturation (direct) binding
Conditions: 100 µg homogenate per well
result_type: Kd (nM)
Please state the figure in nM; there is no need to write the unit.

Reported Kd, molecule CNc1ccc(-c2nc3ccc(O)cc3s2)cc1 [PiB] : ____
3.4
